Measurement notes: Mouse PK studies after oral and IV dosing
Assay type: in vivo
Assay conditions: PO 3 mg/kg vs IV 1 mg/kg
Cut-off 50% on F, inclusive. At or above means criterion met; below means criterion not met.

[[record]]
compound = "C[C@H]1CC2(CCN(c3ccc(C(=O)N4CCN(CC5CCN(c6ccc7c(c6)C(=O)N(C6CCC(=O)NC6=O)C7=O)CC5)CC4)nn3)CC2)CN1c1ccc(C#N)c(Cl)c1 (some centres unmarked) [Cpd. No. 491]"
assigned_category = "criterion not met"

[[record]]
compound = "C[C@H]1CC2(CCN(c3cnc(C(=O)N4CCC(CN5CCN(c6cc7c(cc6F)C(=O)N(C6CCC(=O)NC6=O)C7=O)CC5)CC4)cn3)CC2)CN1c1ccc(C#N)c(Cl)c1 (some centres unmarked) [Cpd. No. 493]"
assigned_category = "criterion not met"

[[record]]
compound = "C[C@H]1CC2(CCN(c3ccc(C(=O)N4CCN(C5CCN(c6ccc7c(c6)C(=O)N(C6CCC(=O)NC6=O)C7=O)CC5)CC4)cc3F)CC2)CN1c1ccc(C#N)c(Cl)c1 (some centres unmarked) [Cpd. No. 521]"
assigned_category = "criterion not met"

[[record]]
compound = "C[C@H]1CC2(CCN(c3ccc(C(=O)N4CCC(N5CCN(c6ccc7c(c6)C(=O)N(C6CCC(=O)NC6=O)C7=O)CC5)CC4)cc3)CC2)CN1c1ccc(C#N)c(Cl)c1 (some centres unmarked) [Cpd. No. 443]"
assigned_category = "criterion met"

[[record]]
compound = "C[C@H]1CC2(CCN(c3ccc(C(=O)N4CCC(N5CCN(c6ccc7c(c6)C(=O)N(C6CCC(=O)NC6=O)C7=O)CC5)CC4)cc3F)CC2)CN1c1ccc(C#N)c(Cl)c1 (some centres unmarked) [Cpd. No. 511]"
assigned_category = "criterion not met"

[[record]]
compound = "C[C@H]1CC2(CCN(c3ccc(C(=O)N4CCN(C5CCN(c6cc7c(cc6F)C(=O)N(C6CCC(=O)NC6=O)C7=O)CC5)CC4)cc3)CC2)CN1c1ccc(C#N)c(Cl)c1 (some centres unmarked) [Cpd. No. 540]"
assigned_category = "criterion met"

[[record]]
compound = "C[C@H]1CC2(CCN(c3ccc(C(=O)N4CCC(CN5CCN(c6ccc7c(c6)C(=O)N(C6CCC(=O)NC6=O)C7=O)CC5)CC4)cc3)CC2)CN1c1ccc(C#N)c(Cl)c1 (some centres unmarked) [Cpd. No. 442]"
assigned_category = "criterion not met"

[[record]]
compound = "C[C@H]1CC2(CCN(c3ccc(C(=O)N4CCN(CC5CN(c6cc7c(cc6F)C(=O)N(C6CCC(=O)NC6=O)C7=O)C5)CC4)nn3)CC2)CN1c1ccc(C#N)c(Cl)c1 (some centres unmarked) [Cpd. No. 485]"
assigned_category = "criterion met"

[[record]]
compound = "C[C@H]1CC2(CCN(c3cnc(C(=O)N4CCC(CN5Cc6cc7c(cc6C5)C(=O)N(C5CCC(=O)NC5=O)C7=O)CC4)cn3)CC2)CN1c1ccc(C#N)c(Cl)c1 (some centres unmarked) [Cpd. No. 495]"
assigned_category = "criterion met"

[[record]]
compound = "C[C@H]1CC2(CCN(c3cnc(C(=O)N4CCC(CN5CCN(c6ccc7c(c6)C(=O)N(C6CCC(=O)NC6=O)C7=O)CC5)CC4)cn3)CC2)CN1c1ccc(C#N)c(Cl)c1 (some centres unmarked) [Cpd. No. 492]"
assigned_category = "criterion not met"

[[record]]
compound = "C[C@H]1CC2(CCN(c3ccc(C(=O)N4CCC(CN5CCN(c6cc7c(cc6F)C(=O)N(C6CCC(=O)NC6=O)C7=O)CC5)CC4)cc3)CC2)CN1c1ccc(C#N)c(Cl)c1 (some centres unmarked) [Cpd. No. 444]"
assigned_category = "criterion met"

[[record]]
compound = "C[C@H]1CC2(CCN(c3ccc(C(=O)N4CCC(CN5CCN(c6cc7c(cc6F)C(=O)N(C6CCC(=O)NC6=O)C7=O)CC5)CC4)nn3)CC2)CN1c1ccc(C#N)c(Cl)c1 (some centres unmarked) [Cpd. No. 490]"
assigned_category = "criterion not met"

[[record]]
compound = "C[C@H]1CC2(CCN(c3ccc(C(=O)N4CCN(C5CCN(c6ccc7c(c6)C(=O)N(C6CCC(=O)NC6=O)C7=O)CC5)CC4)cc3F)CC2)CN1c1ccc(C#N)c(Cl)c1 (some centres unmarked) [Cpd. No. 522]"
assigned_category = "criterion not met"

[[record]]
compound = "C[C@H]1CC2(CCN(c3ccc(C(=O)N4CCN(CC5CN(c6ccc7c(c6)C(=O)N(C6CCC(=O)NC6=O)C7=O)C5)CC4)nn3)CC2)CN1c1ccc(C#N)c(Cl)c1 (some centres unmarked) [Cpd. No. 484]"
assigned_category = "criterion not met"

[[record]]
compound = "C[C@H]1CC2(CCN(c3ccc(C(=O)N4CCN(CC5CCN(c6cc7c(cc6F)C(=O)N(C6CCC(=O)NC6=O)C7=O)CC5)CC4)nn3)CC2)CN1c1ccc(C#N)c(Cl)c1 (some centres unmarked) [compound 588]"
assigned_category = "criterion met"

[[record]]
compound = "C[C@H]1CC2(CCN(c3ccc(C(=O)N4CCN(C5CN(c6ccc7c(c6)C(=O)N(C6CCC(=O)NC6=O)C7)C5)CC4)cc3)CC2)CN1c1ccc(C#N)c(Cl)c1 (some centres unmarked) [Cpd. No. 348]"
assigned_category = "criterion not met"

[[record]]
compound = "C[C@H]1CC2(CCN(c3ccc(C(=O)N4CCN(C5CN(c6cc7c(cc6F)C(=O)N(C6CCC(=O)NC6=O)C7=O)C5)CC4)cc3)CC2)CN1c1ccc(C#N)c(Cl)c1 (some centres unmarked) [Cpd. No. 344]"
assigned_category = "criterion met"

